Assay: Test 2: Pharmacokinetic test in dogs
Type: in vivo, dog
Settings: dog, blood, iv, 10 mg/kg, Dog-1, i.v. 10 mg/kg, 120 min; read-out: Blood concentration
Property Label: concentration at 2 h (ng/mL)
Provide the reading as a plain figure in ng/mL.

Prompt: Item CN(C(=O)[C@H](Cc1ccc(C(=N)NN)cc1)NS(=O)(=O)c1ccc2ccccc2c1)C1CCCC1 [Example 1] has what recorded concentration at 2 h?
Response: 1090

====

Assay: Test 2: Pharmacokinetic test in dogs
Assay type: in vivo, dog
Conditions: dog, blood, po, 10 mg/kg, Dog-2, oral 10 mg/kg, 120 min; read-out: Blood concentration
Property Label: concentration at 2 h (ng/mL)
Provide the reading as a plain figure in ng/mL.

Prompt: Item CN(C(=O)[C@H](Cc1ccc(C(=N)NN)cc1)NS(=O)(=O)c1ccc2ccccc2c1)C1CCCC1 [Example 1] has what recorded concentration at 2 h?
Response: 730
